Target chain: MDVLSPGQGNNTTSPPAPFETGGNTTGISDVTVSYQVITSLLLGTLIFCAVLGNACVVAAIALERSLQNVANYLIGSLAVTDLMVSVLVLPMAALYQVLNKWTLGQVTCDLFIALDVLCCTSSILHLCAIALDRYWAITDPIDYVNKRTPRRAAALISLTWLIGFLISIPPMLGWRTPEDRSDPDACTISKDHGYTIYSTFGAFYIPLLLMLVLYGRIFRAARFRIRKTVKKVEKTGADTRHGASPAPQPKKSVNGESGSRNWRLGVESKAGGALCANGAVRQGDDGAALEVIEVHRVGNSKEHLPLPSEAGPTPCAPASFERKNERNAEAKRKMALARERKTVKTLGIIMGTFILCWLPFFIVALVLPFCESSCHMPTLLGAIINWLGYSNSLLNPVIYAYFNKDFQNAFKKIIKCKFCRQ
metric: AC50

compound	value reported
CC(=O)Nc1ccc(/C=N/NC(N)=S)cc1 [AMITHIOZONE]	> 30 µM
Cc1cnc(C(=O)O)c[n+]1[O-] [ACIPIMOX]	> 30 µM
COc1cccc2c1C(=O)c1c(O)c3c(c(O)c1C2=O)C[C@@](O)(C(=O)CO)C[C@@H]3O[C@H]1C[C@H](N)[C@@H](O)[C@H](C)O1 [EPIRUBICIN]	> 30 µM
CCCCCCO[C@@H](C)c1cccc(-c2csc(NC(=O)c3cc(Cl)c(/C=C(\C)C(=O)O)c(Cl)c3)n2)c1OC [LUSUTROMBOPAG]	6.96 µM

---

Reported AC50 by item:
# target or test system: cGMP-inhibited 3',5'-cyclic phosphodiesterase 3A (Homo sapiens, UniProt Q14432); note: assay procedure not described here
# Sequence (Q14432 whole entry): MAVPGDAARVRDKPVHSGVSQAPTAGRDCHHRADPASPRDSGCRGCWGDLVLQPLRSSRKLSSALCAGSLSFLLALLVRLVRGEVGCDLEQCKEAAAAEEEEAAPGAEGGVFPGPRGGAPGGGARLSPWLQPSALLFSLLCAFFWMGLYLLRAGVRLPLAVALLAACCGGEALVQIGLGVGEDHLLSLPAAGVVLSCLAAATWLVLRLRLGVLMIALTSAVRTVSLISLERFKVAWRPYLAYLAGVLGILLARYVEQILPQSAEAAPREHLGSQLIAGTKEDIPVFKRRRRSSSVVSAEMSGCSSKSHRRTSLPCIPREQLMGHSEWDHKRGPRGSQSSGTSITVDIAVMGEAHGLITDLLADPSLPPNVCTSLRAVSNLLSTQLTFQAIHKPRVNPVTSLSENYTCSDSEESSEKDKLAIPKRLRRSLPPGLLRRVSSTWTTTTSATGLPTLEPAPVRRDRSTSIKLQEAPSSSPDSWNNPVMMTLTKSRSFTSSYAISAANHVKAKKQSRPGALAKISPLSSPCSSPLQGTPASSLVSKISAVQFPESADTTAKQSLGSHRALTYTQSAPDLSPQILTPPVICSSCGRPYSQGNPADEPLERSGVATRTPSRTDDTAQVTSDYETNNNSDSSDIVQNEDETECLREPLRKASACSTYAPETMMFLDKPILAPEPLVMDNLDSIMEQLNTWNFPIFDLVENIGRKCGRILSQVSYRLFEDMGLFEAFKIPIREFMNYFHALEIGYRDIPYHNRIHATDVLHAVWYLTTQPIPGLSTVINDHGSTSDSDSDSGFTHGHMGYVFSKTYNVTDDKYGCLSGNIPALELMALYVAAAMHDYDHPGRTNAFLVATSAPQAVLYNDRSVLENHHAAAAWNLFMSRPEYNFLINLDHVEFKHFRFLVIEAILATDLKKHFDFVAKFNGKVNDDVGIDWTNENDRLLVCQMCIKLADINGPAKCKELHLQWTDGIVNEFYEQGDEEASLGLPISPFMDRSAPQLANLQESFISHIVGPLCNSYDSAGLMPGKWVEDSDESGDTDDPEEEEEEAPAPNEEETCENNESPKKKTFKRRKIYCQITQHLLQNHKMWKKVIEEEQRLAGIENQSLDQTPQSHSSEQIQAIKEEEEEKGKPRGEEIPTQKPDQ
# Format: functional

molecule	AC50
NS(=O)(=O)c1cc2c(cc1Cl)NC(C(Cl)Cl)NS2(=O)=O (configuration not stated) [TRICHLORMETHIAZIDE]	> 30 µM
CCCCC(=O)O[C@H]1CC[C@H]2[C@@H]3CCc4cc(O)ccc4[C@H]3CC[C@]12C [ESTRADIOL VALERATE]	23.9 µM
CN(C)CCN(Cc1ccccc1)c1ccccn1 [TRIPELENNAMINE]	> 30 µM
CC(C)Nc1cccnc1N1CCN(C(=O)c2cc3cc(NS(C)(=O)=O)ccc3[nH]2)CC1 [DELAVIRDINE]	> 30 µM
CCOC(=O)[C@H](CCc1ccccc1)N[C@@H](C)C(=O)N1Cc2ccccc2C[C@H]1C(=O)O	> 30 µM
O=C1[C@@H]2[C@H]3CC[C@H](C3)[C@@H]2C(=O)N1C[C@@H]1CCCC[C@H]1CN1CCN(c2nsc3ccccc23)CC1 [LURASIDONE]	> 30 µM
CCCCCCCC/C=C\CCCCCCCC(=O)O [OLEIC ACID]	> 30 µM
CC(C)(C)NCC(O)COc1ccccc1C#N (configuration not stated) [BUNITROLOL]	> 30 µM
CCn1c(=O)c2c(nc(/C=C/c3ccc(OC)c(OC)c3)n2C)n(CC)c1=O [ISTRADEFYLLINE]	> 30 µM
COC(=O)N[C@H](C(=O)N1CC2(CC2)C[C@H]1c1ncc(-c2ccc3c(c2)C(F)(F)c2cc(-c4ccc5nc([C@@H]6[C@H]7CC[C@H](C7)N6C(=O)[C@@H](NC(=O)OC)C(C)C)[nH]c5c4)ccc2-3)[nH]1)C(C)C	> 30 µM
NC(=O)N/N=C/c1ccc([N+](=O)[O-])o1 [NITROFURAZONE]	29.8 µM
CC(C)NC[C@H](O)COc1ccc(O)cc1 [PRENALTEROL]	> 30 µM
N[C@@H](Cc1ccc(N(CCCl)CCCl)cc1)C(=O)O	> 30 µM
Nc1ccn(C[C@@H](CO)OCP(=O)(O)O)c(=O)n1 [CIDOFOVIR]	> 30 µM
NCC1(CC(=O)O)CCCCC1 [GABAPENTIN]	> 30 µM
C#C[C@]1(OC(C)=O)CC[C@H]2[C@@H]3CCC4=CC(=O)CC[C@@H]4[C@H]3CC[C@@]21C [NORETHINDRONE ACETATE]	> 30 µM
CC1(C)C[C@@H]1C(=O)N/C(=C\CCCCSC[C@H](N)C(=O)O)C(=O)O [CILASTATIN]	> 30 µM
